What MIC90 was measured for each of the following?
system: Prevotella heparinolytica; test: Agar dilution MIC; assay type: cell-based; conditions: Prevotella heparinolytica, 16 isolates; read-out: Minimal Inhibitory Concentration 90% (MIC90)
Kindly answer with a numeric value in µg/mL, unit omitted.

Dear colleague, I am looking for the recorded MIC90 of the following molecule: CC[C@H]1OC(=O)[C@H](C)[C@@H](O[C@H]2C[C@@](C)(OC)[C@@H](O)[C@H](C)O2)[C@H](C)[C@@H](O[C@@H]2O[C@H](C)C[C@H](N(C)C)[C@H]2O)[C@](C)(O)C[C@@H](C)C(=O)[C@H](C)[C@@H](O)[C@]1(C)O [Erythromycin]
0.25

Requested read-out: MIC90. Entry: CC[C@H]1OC(=O)[C@H](C)[C@@H](O[C@H]2C[C@@](C)(OC)[C@@H](O)[C@H](C)O2)[C@H](C)[C@@H](O[C@@H]2O[C@H](C)C[C@H](N(C)C)[C@H]2O)[C@](C)(OC)C[C@@H](C)C(=O)[C@H](C)[C@@H](O)[C@]1(C)O [Clarithromycin]
0.125

Return reported MIC90; argument: Cc1ncc([N+](=O)[O-])n1CCO [Metronidazole]
1

I would be grateful if you could share the reported MIC90 for N[C@@H]1[C@H]2CN(c3nc4c(cc3F)c(=O)c(C(=O)O)cn4-c3ccc(F)cc3F)C[C@@H]12 [Trovafloxacin] .
0.25

Which value of MIC90 has been reported for CC[C@H]1OC(=O)[C@H](C)[C@@H](O[C@H]2C[C@@](C)(OC)[C@@H](O)[C@H](C)O2)[C@H](C)[C@@H](O[C@@H]2O[C@H](C)C[C@H](N(C)C)[C@H]2O)[C@](C)(O)C[C@@H](C)CN(C)[C@H](C)[C@@H](O)[C@]1(C)O [Azithromycin] in the records?
1

====

test system: Peptostreptococcus magnus; assay: Agar dilution MIC; type: cell-based; conditions: Finegoldia magna; 13 isolates; read-out: Minimal Inhibitory Concentration 90% (MIC90)
For each entry below, report its MIC90 value.

Need MIC90, item CC[C@H]1OC(=O)[C@H](C)[C@@H](O[C@H]2C[C@@](C)(OC)[C@@H](O)[C@H](C)O2)[C@H](C)[C@@H](O[C@@H]2O[C@H](C)C[C@H](N(C)C)[C@H]2O)[C@](C)(O)C[C@@H](C)CN(C)[C@H](C)[C@@H](O)[C@]1(C)O
> 32 µg/mL

Value lookup for MIC90; key = N[C@@H]1[C@H]2CN(c3nc4c(cc3F)c(=O)c(C(=O)O)cn4-c3ccc(F)cc3F)C[C@@H]12
0.25 µg/mL

Please give the measured MIC90 for this molecule: Cc1ncc([N+](=O)[O-])n1CCO
0.5 µg/mL

What value of measured MIC90 is listed for CC[C@H]1OC(=O)[C@H](C)[C@@H](O[C@H]2C[C@@](C)(OC)[C@@H](O)[C@H](C)O2)[C@H](C)[C@@H](O[C@@H]2O[C@H](C)C[C@H](N(C)C)[C@H]2O)[C@](C)(O)C[C@@H](C)C(=O)[C@H](C)[C@@H](O)[C@]1(C)O ?
> 32 µg/mL

====

Provide the recorded MIC90 for the entries that follow.
tested on: Porphyromonas canoris; experiment: Agar dilution MIC; format: cell-based; settings: Porphyromonas canoris; 10 isolates; read-out: Minimal Inhibitory Concentration 90% (MIC90)

Requested read-out MIC90, target or system Porphyromonas canoris, entry CC[C@H]1OC(=O)[C@H](C)[C@@H](O[C@H]2C[C@@](C)(OC)[C@@H](O)[C@H](C)O2)[C@H](C)[C@@H](O[C@@H]2O[C@H](C)C[C@H](N(C)C)[C@H]2O)[C@](C)(O)C[C@@H](C)CN(C)[C@H](C)[C@@H](O)[C@]1(C)O
0.25 µg/mL

Query the reported MIC90 for Porphyromonas canoris; item: CO/N=C1\CN(c2nc3c(cc2F)c(=O)c(C(=O)O)cn3C2CC2)CC1CN (racemic)
0.25 µg/mL

Provide the documented MIC90 with Porphyromonas canoris as the system for CCC[C@@H]1C[C@@H](C(=O)N[C@@H]([C@H]2O[C@H](SC)[C@H](O)[C@@H](O)[C@H]2O)[C@H](C)Cl)N(C)C1
≤ 0.015 µg/mL

MIC90 of Cc1ncc([N+](=O)[O-])n1CCO on Porphyromonas canoris?
0.25 µg/mL

What MIC90 appears in the records for this compound with Porphyromonas canoris? N[C@@H]1[C@H]2CN(c3nc4c(cc3F)c(=O)c(C(=O)O)cn4-c3ccc(F)cc3F)C[C@@H]12
0.5 µg/mL

Under Porphyromonas canoris: MIC90 value of CC[C@H]1OC(=O)[C@H](C)[C@@H](O[C@H]2C[C@@](C)(OC)[C@@H](O)[C@H](C)O2)[C@H](C)[C@@H](O[C@@H]2O[C@H](C)C[C@H](N(C)C)[C@H]2O)[C@](C)(O)C[C@@H](C)C(=O)[C@H](C)[C@@H](O)[C@]1(C)O ?
0.125 µg/mL

Find MIC90 (Porphyromonas canoris) for the entry CC[C@H]1OC(=O)[C@H](C)[C@@H](O[C@H]2C[C@@](C)(OC)[C@@H](O)[C@H](C)O2)[C@H](C)[C@@H](O[C@@H]2O[C@H](C)C[C@H](N(C)C)[C@H]2O)[C@](C)(OC)C[C@@H](C)C(=O)[C@H](C)[C@@H](O)[C@]1(C)O
0.125 µg/mL

====

For each entry below, report its MIC90 value.
test system: Clostridium ramosum; assay: Agar dilution MIC; format: cell-based; details: Thomasclavelia ramosa; 10 isolates; read-out: Minimal Inhibitory Concentration 90% (MIC90)

Record request: MIC90 value, item CC[C@H]1OC(=O)[C@H](C)[C@@H](O[C@H]2C[C@@](C)(OC)[C@@H](O)[C@H](C)O2)[C@H](C)[C@@H](O[C@@H]2O[C@H](C)C[C@H](N(C)C)[C@H]2O)[C@](C)(O)C[C@@H](C)C(=O)[C@H](C)[C@@H](O)[C@]1(C)O [Erythromycin]
> 32 µg/mL

Can you share its MIC90? I mean this molecule: Cc1ncc([N+](=O)[O-])n1CCO [Metronidazole]
1 µg/mL

Look at this molecule and give its reported MIC90. N[C@@H]1[C@H]2CN(c3nc4c(cc3F)c(=O)c(C(=O)O)cn4-c3ccc(F)cc3F)C[C@@H]12 [Trovafloxacin]
2 µg/mL

Please give the measured MIC90 for this molecule: CO/N=C1\CN(c2nc3c(cc2F)c(=O)c(C(=O)O)cn3C2CC2)CC1CN (racemic) [Gemifloxacin]
1 µg/mL

Entry CC[C@H]1OC(=O)[C@H](C)[C@@H](O[C@H]2C[C@@](C)(OC)[C@@H](O)[C@H](C)O2)[C@H](C)[C@@H](O[C@@H]2O[C@H](C)C[C@H](N(C)C)[C@H]2O)[C@](C)(OC)C[C@@H](C)C(=O)[C@H](C)[C@@H](O)[C@]1(C)O [Clarithromycin] has what MIC90?
> 32 µg/mL

Returns the measured MIC90 for the input molecule. Input: CCC[C@@H]1C[C@@H](C(=O)N[C@@H]([C@H]2O[C@H](SC)[C@H](O)[C@@H](O)[C@H]2O)[C@H](C)Cl)N(C)C1 [Clindamycin]
2 µg/mL

So what's the measured MIC90 for this one? CC[C@H]1OC(=O)[C@H](C)[C@@H](O[C@H]2C[C@@](C)(OC)[C@@H](O)[C@H](C)O2)[C@H](C)[C@@H](O[C@@H]2O[C@H](C)C[C@H](N(C)C)[C@H]2O)[C@](C)(O)C[C@@H](C)CN(C)[C@H](C)[C@@H](O)[C@]1(C)O [Azithromycin]
> 32 µg/mL

====

tested on: Peptostreptococcus micros; assay: Agar dilution MIC; assay type: cell-based; conditions: Parvimonas micra; 12 isolates; read-out: Minimal Inhibitory Concentration 90% (MIC90)
Quick rule for you: MIC90 under 0.5 µg/mL gets 1, anything else gets 0.

For CCC[C@@H]1C[C@@H](C(=O)N[C@@H]([C@H]2O[C@H](SC)[C@H](O)[C@@H](O)[C@H]2O)[C@H](C)Cl)N(C)C1 [Clindamycin] , is the recorded MIC90 below the cut-off of 0.5 µg/mL?
1

Given the entry N[C@@H]1[C@H]2CN(c3nc4c(cc3F)c(=O)c(C(=O)O)cn4-c3ccc(F)cc3F)C[C@@H]12 [Trovafloxacin] , would its reported MIC90 be below 0.5 µg/mL?
1

Could you please tell me whether MIC90 recorded for Cc1ncc([N+](=O)[O-])n1CCO [Metronidazole] is less than 0.5 µg/mL?
1

Lab note: confirm whether the reported MIC90 for this molecule is below 0.5 µg/mL, equality not counting. molecule: CC[C@H]1OC(=O)[C@H](C)[C@@H](O[C@H]2C[C@@](C)(OC)[C@@H](O)[C@H](C)O2)[C@H](C)[C@@H](O[C@@H]2O[C@H](C)C[C@H](N(C)C)[C@H]2O)[C@](C)(O)C[C@@H](C)CN(C)[C@H](C)[C@@H](O)[C@]1(C)O [Azithromycin]
0

# strict comparison: is reported MIC90 < 0.5 µg/mL? input = CO/N=C1\CN(c2nc3c(cc2F)c(=O)c(C(=O)O)cn3C2CC2)CC1CN (racemic) [Gemifloxacin]
1
